These data points were gathered from patent US8999994B2.

# experimental_system: MAO-A (Rattus norvegicus (Rat))
# test_method_notes: Inhibition of monoamine oxidase A (Fowler and Tipton radiometric method, rat liver mitochondria)
# Type: biochemical
measurement_name: IC50 (nM)
Numbers only, in nM.

Field IC50 (MAO-A (Rattus norvegicus (Rat))), entry `C#CCN(C)Cc1cc2cc(OCCCN3CCN(Cc4ccccc4)CC3)ccc2n1C` : 30.5

---

# experimental_system: UniProtKB P21396
# test_method_notes: Inhibition of monoamine oxidase A (Fowler and Tipton radiometric method, rat liver mitochondria)
# Assay type: biochemical
# condition_description: rat liver mitochondria, [14C]-5-HT 100 μM substrate, 30 min incubation; mean ± SEM; read-out: IC50 (μM) MAO MAO-A
Give IC50 for every item shown.
Numbers only, in µM.

Some solved cases for reference:
# IC50 (compound: `C#CCN(C)Cc1cc2cc(OCCN3CCC(Cc4ccccc4)CC3)ccc2n1C` ) is 0.143

# IC50 (compound: `C#CCN(C)Cc1cc2cc(OCCCCC3CCN(Cc4ccccc4)CC3)ccc2n1C` ) is 0.0105

# IC50 (compound: `C#CCN(C)Cc1cc2cc(OCCCC3CCN(Cc4ccccc4)CC3)ccc2n1C` ) is 0.0052

# IC50 (compound: `C#CCN(C)Cc1cc2cc(OCCC3CCN(Cc4ccccc4)CC3)ccc2n1C` ) is 0.0067

With those in mind, consider the next compound.
# IC50 (compound: `C#CCN(C)Cc1cc2cc(OCC3CCN(Cc4ccccc4)CC3)ccc2n1C` ) is 0.0822

---

# experimental_system: MAO-B (Rattus norvegicus (Rat), UniProt P19643)
# Sequence (P19643 whole entry): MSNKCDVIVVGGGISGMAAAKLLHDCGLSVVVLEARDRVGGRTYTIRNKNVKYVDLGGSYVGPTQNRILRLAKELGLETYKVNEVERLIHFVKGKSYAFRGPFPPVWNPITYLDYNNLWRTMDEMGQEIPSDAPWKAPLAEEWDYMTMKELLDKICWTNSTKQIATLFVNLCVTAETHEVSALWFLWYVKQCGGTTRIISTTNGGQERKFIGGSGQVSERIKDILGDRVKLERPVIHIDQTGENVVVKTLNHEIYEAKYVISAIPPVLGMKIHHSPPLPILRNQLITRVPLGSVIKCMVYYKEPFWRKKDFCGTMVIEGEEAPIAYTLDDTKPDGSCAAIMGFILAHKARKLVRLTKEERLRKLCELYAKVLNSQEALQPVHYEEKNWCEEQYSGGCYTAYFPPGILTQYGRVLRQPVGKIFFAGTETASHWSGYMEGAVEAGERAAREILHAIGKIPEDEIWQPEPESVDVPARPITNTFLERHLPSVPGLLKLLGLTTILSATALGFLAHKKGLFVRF
# test_method_notes: Inhibition of monoamine oxidase B (Fowler and Tipton radiometric method, rat liver mitochondria)
# Format: biochemical
# condition_description: rat liver mitochondria, [14C]-phenylethylamine 20 μM substrate, 30 min incubation; mean ± SEM
Output YES for records whose IC50 is lower than 2 µM, NO for records at or above 2 µM.

Look over these answered cases.
Is 2 µM strictly greater than the compound's reported IC50? compound: `C#CCN(C)Cc1cc2cc(OCCN3CCC(Cc4ccccc4)CC3)ccc2n1C` YES

Is 2 µM strictly greater than the compound's reported IC50? compound: `C#CCN(C)Cc1cc2cc(OCCCN3CCC(Cc4ccccc4)CC3)ccc2n1C` NO

Is 2 µM strictly greater than the compound's reported IC50? compound: `C#CCN(C)Cc1cc2cc(OCCCC3CCN(Cc4ccccc4)CC3)ccc2n1C` YES

Is 2 µM strictly greater than the compound's reported IC50? compound: `C#CCN(C)Cc1cc2cc(OCCCN3CCN(Cc4ccccc4)CC3)ccc2n1C` YES

Continue with the next compound.
Is 2 µM strictly greater than the compound's reported IC50? compound: `C#CCN(C)Cc1cc2cc(OCCCCC3CCN(Cc4ccccc4)CC3)ccc2n1C` NO

---

# experimental_system: MAO-A (Rattus norvegicus (Rat), UniProt P21396)
# Sequence (P21396 whole entry): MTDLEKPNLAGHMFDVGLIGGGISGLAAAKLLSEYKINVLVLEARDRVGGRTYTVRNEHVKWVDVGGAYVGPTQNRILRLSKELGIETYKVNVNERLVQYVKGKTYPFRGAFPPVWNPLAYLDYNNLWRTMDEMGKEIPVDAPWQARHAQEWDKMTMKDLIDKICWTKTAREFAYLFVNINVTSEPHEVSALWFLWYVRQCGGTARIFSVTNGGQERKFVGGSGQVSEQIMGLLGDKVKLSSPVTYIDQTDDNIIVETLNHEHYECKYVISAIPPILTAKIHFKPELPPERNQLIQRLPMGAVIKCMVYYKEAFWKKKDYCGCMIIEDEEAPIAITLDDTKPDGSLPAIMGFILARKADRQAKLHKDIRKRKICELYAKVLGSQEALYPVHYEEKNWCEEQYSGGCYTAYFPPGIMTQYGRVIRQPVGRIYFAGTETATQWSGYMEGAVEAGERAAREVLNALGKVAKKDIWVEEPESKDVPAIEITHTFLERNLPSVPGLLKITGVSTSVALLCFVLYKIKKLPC
# test_method_notes: Inhibition of monoamine oxidase A (Fowler and Tipton radiometric method, rat liver mitochondria)
# Assay type: biochemical
# condition_description: read-out: IC50 (μM) MAO MAO-A
measurement_name: IC50 (µM)
Answers are plain numbers, in µM.

# IC50 (compound: `C#CCN(C)Cc1cc2cc(OCCCN3CCC(Cc4ccccc4)CC3)ccc2n1C` ) is 0.0654

---

# experimental_system: UniProt:P19643
# test_method_notes: Inhibition of monoamine oxidase B (Fowler and Tipton radiometric method, rat liver mitochondria)
# Type: biochemical
measurement_name: IC50 (µM)
Give bare numbers, in µM.

# IC50 (compound: `C#CCN(C)Cc1cc2cc(OCCC3CCN(Cc4ccccc4)CC3)ccc2n1C` ) is 0.13

Next:
# IC50 (compound: `C#CCN(C)Cc1cc2cc(OCC3CCN(Cc4ccccc4)CC3)ccc2n1C` ) is 0.745
